Measured values drawn from patent US20230391772A1 for this set.

pEC50 for assorted compounds
Test system: NCI-H358 human non-small cell lung cancer
Assay: NCI-H358 CCK-8 proliferation assay
Assay type: cell-based
Conditions: NCI-H358 cells, 72 hr
pEC50: −log10 of the molar value.

Below are worked cases with known answers.
CCC(=O)N1CCN(c2nc(NCCC(=O)NCc3ccc(-n4c(O)nnc4-c4cc(CC)c(O)cc4O)cc3F)nc3c2CCN(c2cc(O)cc4ccccc24)C3)CC1 | < 6.00
CCC(=O)N1CCN(c2nc(OCC3CN(C(=O)C4CCN(Cc5ccc(-n6c(O)nnc6-c6cc(C(C)C)c(O)cc6O)cc5)CC4)C3)nc3c2CCN(c2cccc4cccc(Cl)c24)C3)C[C@@H]1CC#N | 6.00 to 7.00
C=CC(=O)N1CCN(c2nc(NCCC(=O)N3CCC(Cc4ccc(CN(C)Cc5ccc(-n6c(C(=O)NCC(F)(F)F)nnc6-c6cc(C(C)C)c(O)cc6O)cc5)cc4)CC3)nc3c2CCN(c2cccc4ccccc24)C3)C[C@H]1CC#N | < 6.00

Task: Note pEC50 for the compound shown: CCC(=O)N1CCN(c2nc(NCCCNC(=O)C3CCN(Cc4ccc(-n5c(O)nnc5-c5cc(C(C)C)c(O)cc5O)cc4)CC3)nc3c2CCN(c2cccc4cccc(Cl)c24)C3)C[C@@H]1CC#N
Output: < 6.00

###

Test system: NCI-H358 human non-small cell lung cancer
Experiment: NCI-H358 CCK-8 proliferation assay
Assay type: cell-based
Conditions: NCI-H358 cells, 72 hr
QUANTITY NAME: EC50

C=CC(=O)N1CCN(c2nc(NCCC(=O)NCCOCCOc3ccc(-n4c(O)nnc4-c4cc(CC)c(O)cc4O)cc3)nc3c2CCN(c2cc(O)cc4ccccc24)C3)CC1 | > 1000 nM

Task: Note EC50 for the compound shown: C=CC(=O)N1CCN(c2nc(NCCC(=O)N3CCN(Cc4ccc5c(c4F)CN(C(=O)c4ccc(O)cc4O)C5)CC3)nc3c2CCN(c2cc(O)cc4ccccc24)C3)CC1
Output: > 1000 nM

Task: Note EC50 for the compound shown: C=CC(=O)N1CCN(c2nc(NCCC(=O)N3CCC(Cc4ccc(-n5c(C(=O)NCC(F)(F)F)nnc5-c5cc(C(C)C)c(O)cc5O)cc4)CC3)nc3c2CCN(c2cc(O)cc4ccccc24)C3)CC1
Output: 100 to 1000 nM

###

IC50 for assorted molecules
Biological target: HSP90a protein (Homo sapiens)
Construct: purchased BPS Bioscience 50298
Test: HSP90α-binding fluorescent polarization (FP) assay, BODIPY-labeled RNK04010 probe
Conditions: FP competition with RNK04010 (BODIPY-labeled), 5 nM, 300 min at 25° C.

C=CC(=O)N1CCN(c2nc(OC[C@@H]3C[C@H](NC(=O)C4CCN(C(=O)C5CCN(Cc6ccc(-n7c(C(=O)NCC(F)(F)F)nnc7-c7cc(C(C)C)c(O)cc7O)cc6)CC5)CC4)CN3C)nc3c2CCN(c2cccc4cccc(Cl)c24)C3)C[C@@H]1CC#N [Compound 307] | < 100 nM
C=C(F)C(=O)N1CCN(c2nc(OCCN3CCN(C(=O)c4ccc(-n5c(O)nnc5-c5cc(C(C)C)c(O)cc5O)cc4)CC3)nc3c2CCN(c2cccc4cccc(Cl)c24)C3)C[C@@H]1CC#N [Compound 226] | < 100 nM
C=CC(=O)N1CCN(c2nc(OCCN3CCN(C(=O)C4CCN(Cc5ccc(-n6c(C(=O)NCC(F)(F)F)nnc6-c6cc(C)c(O)cc6O)cc5)CC4)CC3)nc3c2CCN(c2cccc4cccc(Cl)c24)C3)C[C@@H]1CC#N [Compound 222] | < 100 nM
C=CC(=O)N1CCN(c2nc(NCCC(=O)NCc3ccc(-n4c(O)nnc4-c4cc(CC)c(O)cc4O)cc3F)nc3c2CCN(c2cc(O)cc4ccccc24)C3)CC1 [Compound 41, trifluoroacetic acid] | 100 to 1000 nM
C=CC(=O)N1CCN(c2nc(OC[C@@H]3C[C@H](C(=O)N4CCN(Cc5ccc(-n6c(C(=O)NCC(F)(F)F)nnc6-c6cc(C)c(O)cc6O)cc5)CC4)CN3C)nc3c2CCN(c2cccc4cccc(Cl)c24)C3)C[C@@H]1CC#N [Compound 347] | < 100 nM
C=CC(=O)N1CCN(c2nc(OC[C@@H]3CCN(C(=O)c4ccc5c(c4)CN(C(=O)c4cc(CC)c(O)cc4O)C5)C3)nc3c2CCN(c2cccc4cccc(Cl)c24)C3)C[C@@H]1CC#N [Compound 176] | > 1000 nM
C=CC(=O)N1CCN(c2nc(OC[C@@H]3CC[C@H](CN4CCN(C(=O)C5CCN(Cc6ccc(-n7c(O)nnc7-c7cc(C)c(O)cc7O)cc6)CC5)CC4)N3C)nc3c2CCN(c2cccc4cccc(Cl)c24)C3)C[C@@H]1CC#N [Compound 319] | < 100 nM
C=CC(=O)N1CCN(c2nc(NCCC(=O)N3CCC(Cc4ccc(CN(C)Cc5ccc(-n6c(C(=O)NCC(F)(F)F)nnc6-c6cc(C(C)C)c(O)cc6O)cc5)cc4)CC3)nc3c2CCN(c2cc(O)cc4ccccc24)C3)CC1 [Compound 16, trifluoroacetic acid] | > 1000 nM

Consider the record given below.
Task: Note IC50 for the molecule shown: C=CC(=O)N1CCN(c2nc(OCC3CN(C(=O)C4CCN(Cc5ccc(-n6c(C(=O)NCC(F)(F)F)nnc6-c6cc(C)c(O)cc6O)cc5)CC4)C3)nc3c2CCN(c2cccc4cccc(Cl)c24)C3)C[C@@H]1CC#N [Compound 219]
Output: < 100 nM

###

Biological target: HSP90a protein (Homo sapiens, UniProt P07900)
Construct: purchased BPS Bioscience 50298
Assay: HSP90α-binding fluorescent polarization (FP) assay, BODIPY-labeled RNK04010 probe
Details: FP competition with RNK04010 (BODIPY-labeled), 5 nM, 300 min at 25° C.
pIC50: −log10 of the molar value.
QUANTITY NAME: pIC50

Below are worked cases with known answers.
C=CC(=O)N1CCN(c2nc(OC[C@@H]3C[C@H](C(=O)N4CCN(Cc5ccc(-n6c(O)nnc6-c6cc(C(C)C)c(O)cc6O)cc5)CC4)CN3C)nc3c2CCN(c2cccc4cccc(Cl)c24)C3)C[C@@H]1CC#N | > 7.00
CC(=O)N1CCN(c2nc(NCCC(=O)N3CCN(Cc4ccc(-n5c(O)nnc5-c5cc(C(C)C)c(O)cc5O)cc4)CC3)nc3c2CCN(c2cc(O)cc4ccccc24)C3)CC1 | 6.00 to 7.00

Consider the record given below.
Task: Note pIC50 for the molecule shown: CCC(=O)N1CCN(c2nc(NCCC(=O)NCCc3ccc(-n4c(O)nnc4-c4cc(C(C)C)c(O)cc4O)cc3)nc3c2CCN(c2cc(O)cc4ccccc24)C3)CC1
Output: 6.00 to 7.00

###

Molecular target: KRAS(G12C) (Homo sapiens, UniProt P01116, G12C)
Sequence (P01116 1-188 isoform P01116-2 G12C): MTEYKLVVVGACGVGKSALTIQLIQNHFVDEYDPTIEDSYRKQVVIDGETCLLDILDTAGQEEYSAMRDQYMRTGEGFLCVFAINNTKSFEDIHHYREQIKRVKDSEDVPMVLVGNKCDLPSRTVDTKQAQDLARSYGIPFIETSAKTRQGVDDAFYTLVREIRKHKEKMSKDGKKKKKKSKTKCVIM
Assay: KRAS(G12C)/SOS1 homogeneous time-resolved fluorescence (HTRF) assay
Details: absence of GTP, 4° C. for 3 hr, read-out: KRAS (G12C) binding
IC50 for assorted molecules

Below are worked cases with known answers.
C=CC(=O)N1CCN(c2nc(NCCC(=O)N3CCC(CN4CCN(Cc5ccc(-n6c(C(=O)NCC(F)(F)F)nnc6-c6cc(CC)c(O)cc6O)cc5)CC4)CC3)nc3c2CCN(c2cccc4cccc(Cl)c24)C3)C[C@H]1CC#N | > 1000 nM
C=CC(=O)N1CCN(c2nc(OCCN3CCN(C(=O)C4CCN(Cc5ccc(-n6c(C(=O)NCC(F)(F)F)nnc6-c6cc(C)c(O)cc6O)cc5)CC4)CC3)nc3c2CCN(c2cccc4cccc(Cl)c24)C3)C[C@@H]1CC#N | 100 to 1000 nM
C=CC(=O)N1CCN(c2nc(OC[C@@H]3CC[C@H](CN4CCN(C(=O)C5CCN(Cc6ccc(-n7c(O)nnc7-c7cc(C)c(O)cc7O)cc6)CC5)CC4)N3C)nc3c2CCN(c2cccc4cccc(Cl)c24)C3)C[C@@H]1CC#N | < 100 nM
C=C(F)C(=O)N1CCN(c2nc(OC[C@@H]3CCCN3CCCOCCC(=O)NCc3ccc(-n4c(O)nnc4-c4cc(CC)c(O)cc4O)cc3)nc3c2CCN(c2cccc4cccc(Cl)c24)C3)C[C@@H]1CC#N | 100 to 1000 nM
C=CC(=O)N1CCN(c2nc(OC[C@@H]3CC[C@H](CN4CCN(C(=O)C5CCN(Cc6ccc(-n7c(C(=O)NCC(F)(F)F)nnc7-c7cc(C(C)C)c(O)cc7O)cc6)CC5)CC4)N3C)nc3c2CCN(c2cccc4cccc(Cl)c24)C3)C[C@@H]1CC#N | < 100 nM

Task: Note IC50 for the molecule shown: C=CC(=O)N1CCN(c2nc(OCCN3CCN(C(=O)C4CCN(Cc5ccc(-n6c(O)nnc6-c6cc(C)c(O)cc6O)cc5)CC4)CC3)nc3c2CCN(c2cccc4cccc(Cl)c24)C3)C[C@@H]1CC#N
Output: < 100 nM

Task: Note IC50 for the molecule shown: C=CC(=O)N1CCN(c2nc(OC[C@@H]3CCN3C(=O)C3CCN(Cc4ccc(-n5c(O)nnc5-c5cc(C(C)C)c(O)cc5O)cc4)CC3)nc3c2CCN(c2cccc4cccc(Cl)c24)C3)C[C@@H]1CC#N
Output: > 1000 nM

Task: Note IC50 for the molecule shown: C=CC(=O)N1CCN(c2nc(OC[C@@H]3CC[C@H](C(=O)N4CCN(C(=O)C5CCN(Cc6ccc(-n7c(C(=O)NCC(F)(F)F)nnc7-c7cc(C(C)C)c(O)cc7O)cc6)CC5)CC4)N3C)nc3c2CCN(c2cccc4cccc(Cl)c24)C3)C[C@@H]1CC#N
Output: 100 to 1000 nM
